Parameter pIC50: see the listing below.
molecular target: CDK9/CycT1 (Homo sapiens (Human)); experiment: CDK9 kinase assay, ATP concentration at Km (mobility shift, Caliper LC3000); assay type: biochemical; conditions: 6 μM ATP, 3 nM CDK9/CycT1; read-out: CDK9 ATP conc. at Km (IC50)
API: returns pIC50 as number; meaning -log10 of concentration in mol/L.

Solved entries (count: 4):
Molecule: CC1(C)Cc2c(-c3cc(NC(=O)[C@H]4CCC[C@@H](N)C4)ncc3F)cnn2C1
Experimental System: CDK9/CycT1 (Homo sapiens (Human))
Data Value: 8.00

Molecule: CC(=O)N[C@@H]1CCC[C@H](C(=O)Nc2cc(-c3cnn4c3NCCC4)c(Cl)cn2)C1
Experimental System: CDK9/CycT1 (Homo sapiens (Human))
Data Value: 8.30

Molecule: CC(=O)N[C@@H]1CCC[C@H](C(=O)Nc2cc(-c3cnc4n3CCCC4)c(Cl)cn2)C1
Experimental System: CDK9/CycT1 (Homo sapiens (Human))
Data Value: 8.10

Molecule: CC(=O)N[C@@H]1CCC[C@H](C(=O)Nc2cc(-c3cnn4c3C(O)C(C)(C)C4)c(Cl)cn2)C1 (single isomer, unassigned) [Example 80]
Experimental System: CDK9/CycT1 (Homo sapiens (Human))
Data Value: 8.40

Here's the next entry for you.
Please look up its pIC50: COC1CCc2c(-c3cc(NC(=O)[C@H]4CCC[C@@H](NC(C)=O)C4)ncc3Cl)cnn2C1 (single isomer, unassigned) [Example 71]
7.80

====

target: CDK9/CycT1 (Homo sapiens (Human), UniProt P50750); assay: CDK9 kinase assay, ATP concentration at Km (mobility shift, Caliper LC3000); assay type: biochemical; details: 6 μM ATP, 3 nM CDK9/CycT1; read-out: CDK9 ATP conc. at Km (IC50)
Sequence (P50750 whole entry): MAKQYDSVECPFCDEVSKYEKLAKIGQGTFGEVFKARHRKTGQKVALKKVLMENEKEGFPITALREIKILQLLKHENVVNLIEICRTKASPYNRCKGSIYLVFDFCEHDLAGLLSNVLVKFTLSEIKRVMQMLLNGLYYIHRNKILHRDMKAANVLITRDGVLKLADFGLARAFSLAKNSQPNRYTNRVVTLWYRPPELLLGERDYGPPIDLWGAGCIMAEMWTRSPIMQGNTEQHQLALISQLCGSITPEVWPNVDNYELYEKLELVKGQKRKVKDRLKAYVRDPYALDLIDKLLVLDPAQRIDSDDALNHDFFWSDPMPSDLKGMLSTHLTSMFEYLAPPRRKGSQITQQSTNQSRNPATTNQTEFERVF
Sequence (O60563 whole entry partner): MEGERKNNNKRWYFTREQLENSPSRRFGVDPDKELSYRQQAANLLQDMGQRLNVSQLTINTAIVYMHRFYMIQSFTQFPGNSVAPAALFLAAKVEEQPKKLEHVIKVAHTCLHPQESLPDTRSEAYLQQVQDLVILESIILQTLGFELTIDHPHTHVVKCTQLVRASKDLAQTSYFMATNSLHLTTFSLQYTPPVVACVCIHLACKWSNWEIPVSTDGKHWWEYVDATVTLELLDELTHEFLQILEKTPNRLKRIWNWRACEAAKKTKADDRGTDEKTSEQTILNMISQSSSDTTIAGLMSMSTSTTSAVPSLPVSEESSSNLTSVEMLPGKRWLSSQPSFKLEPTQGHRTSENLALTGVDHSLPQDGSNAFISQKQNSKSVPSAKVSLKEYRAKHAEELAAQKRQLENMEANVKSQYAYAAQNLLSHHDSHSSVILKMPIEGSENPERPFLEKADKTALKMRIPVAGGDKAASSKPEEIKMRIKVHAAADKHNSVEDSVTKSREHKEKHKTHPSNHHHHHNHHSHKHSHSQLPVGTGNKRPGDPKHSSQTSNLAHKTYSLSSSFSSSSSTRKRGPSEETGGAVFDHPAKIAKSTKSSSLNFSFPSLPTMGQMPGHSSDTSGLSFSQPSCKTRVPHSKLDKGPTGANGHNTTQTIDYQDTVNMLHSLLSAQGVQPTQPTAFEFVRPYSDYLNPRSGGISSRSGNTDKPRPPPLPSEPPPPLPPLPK
Measurement Kind: IC50

Molecule: CC(=O)N[C@@H]1CCC[C@H](C(=O)Nc2cc(-c3cnn4c3CCCC4O)c(Cl)cn2)C1 (stereo partly drawn)
Data Value: < 3 nM

I'd like to know its IC50. The molecule in question is CC(=O)N[C@@H]1CCC[C@H](C(=O)Nc2cc(-c3cnn4c3CC(C)(C)C4)c(F)cn2)C1
< 3 nM

====

Molecular target: CDK9/CycT1 (Homo sapiens (Human))
Assay: CDK9 kinase assay, high ATP concentration (5 mM ATP)
Format: biochemical
Conditions: 1.5 nM CDK9, read-out: CDK9 High ATP conc. (IC50)
Method: Activity of CDK9 was determined in-vitro using a mobility shift assay on a Caliper LC3000 reader (Caliper/PerkinElmer), which measures fluorescence of a phosphorylated and unphosphorylated fluorescent peptide substrate and calculates a ratiometric value to determine percent turnover. Phosphorylation of the peptide in the presence and absence of the compound of interest was determined. […]
Where a name gives a salt, the structure may show the parent alone.
Measurement Kind: pIC50
Field pIC50 (float): negative decimal logarithm of the concentration in molar.

Here's what some known entries look like.
Compound: N[C@@H]1CCC[C@H](C(=O)Nc2cc(-c3cnn4c3CCCC4)c(Cl)cn2)C1 [Example 31b, dihydrochloride]
pIC50: 5.58

Compound: CC1(C)Cc2ncc(-c3cc(NC(=O)[C@H]4CCC[C@@H](NC(=O)C5(O)CC5)C4)ncc3Cl)n2C1 [Example 56]
pIC50: 8.40

Compound: CC(=O)N[C@@H]1CCC[C@H](C(=O)Nc2cc(-c3cnn4c3CC(C)CC4)c(Cl)cn2)C1 (single isomer, unassigned) [Example 64]
pIC50: 8.15

Compound: CC(=O)N[C@@H]1CCC[C@H](C(=O)Nc2cc(-c3cnc4n3CCC4)c(Cl)cn2)C1 [Example 12]
pIC50: 6.46

Compound: CC(=O)N[C@@H]1CCC[C@H](C(=O)Nc2cc(-c3cnn4c3CCCCC4)c(F)cn2)C1 [Example 74]
pIC50: 7.41

Let us move to another entry and its pIC50.
Param readout = pIC50; param system = CDK9/CycT1 (Homo sapiens (Human)); param query = CC1(C)Cc2ncc(-c3cc(NC(=O)[C@H]4C[C@@H](O)C4)ncc3Cl)n2C1 [Example 58] ; response: value
7.39

====

Items are presented alongside their recorded pIC50.
target: CDK9/CycT1 (Homo sapiens (Human)); assay: CDK9 kinase assay, high ATP concentration (5 mM ATP); assay type: biochemical; conditions: 1.5 nM CDK9, read-out: CDK9 High ATP conc. (IC50)
pIC50: −log10 of the molar value.

Examples with their reported pIC50 follow.
Mol Smiles: CC1(C)Cc2c(-c3cc(NC(=O)[C@H]4CCC[C@@H](NC(=O)C5COC5)C4)ncc3Cl)cnn2C1
Data Value: > 8.52
//
Mol Smiles: CC1(C)Cc2c(-c3cc(NC(=O)[C@H]4CCC[C@@H](NC(=O)[C@H]5CCCO5)C4)ncc3Cl)cnn2C1
Data Value: > 8.40

Continue with the compound presented below.
Report pIC50 for CC1(C)Cc2c(-c3cc(NC(=O)[C@H]4CCC[C@@H](NC(=O)[C@H]5C[C@@H](O)C5)C4)ncc3Cl)cnn2C1 please.
> 8.52

====

molecular target: CDK9/CycT1 (Homo sapiens (Human)); test: CDK9 kinase assay, high ATP concentration (5 mM ATP); type: biochemical; details: 1.5 nM CDK9, read-out: CDK9 High ATP conc. (IC50)
Measurement Kind: pIC50
Remember, pIC50 is on a log scale: it is -log10 of the molar concentration.

Compound: CC1(C(=O)N[C@@H]2CCC[C@H](C(=O)Nc3cc(-c4cnn5c4CCCC5)c(Cl)cn3)C2)COC1 [Example 34]
pIC50: 7.54
--
Compound: CC(=O)N[C@@H]1CCC[C@H](C(=O)Nc2cc(-c3cnn4c3CC(C)C4)c(Cl)cn2)C1 (single isomer, unassigned) [Example 41]
pIC50: 7.57

Continue with the next compound.
Consider the compound O=C(Nc1cc(-c2cnn3c2CCCC3)c(Cl)cn1)[C@H]1CCC[C@@H](NC(=O)[C@H]2CCCO2)C1 [Example 36] and give its measured pIC50.
7.41

====

biological target: CDK9/CycT1 (Homo sapiens (Human), UniProt P50750); assay: CDK9 kinase assay, high ATP concentration (5 mM ATP); assay type: biochemical; conditions: 1.5 nM CDK9, read-out: CDK9 High ATP conc. (IC50)
Each item that follows carries a reported IC50.

Here is how some molecules turned out for IC50.
Molecule: CC(=O)N[C@@H]1CCC[C@H](C(=O)Nc2cc(-c3cnn4c3C(O)C(C)(C)C4)c(Cl)cn2)C1 (single isomer, unassigned) [Example 79]
IC50: < 3 nM

Molecule: CC(=O)N[C@@H]1CCC[C@H](C(=O)Nc2cc(-c3cnn4c3CC(C)(C)CC4)c(F)cn2)C1
IC50: < 3 nM

Field: next molecule
Param readout= IC50; system= CDK9/CycT1 (Homo sapiens (Human), UniProt P50750); entry= CC1(C)Cc2c(-c3cc(NC(=O)[C@H]4CCC[C@@H](NC(=O)[C@@H]5CCOC5)C4)ncc3Cl)cnn2C1 ; returns value.
< 3 nM
